target_system: CRBN-DDB1 (Homo sapiens (Human), UniProt Q96SW2)
Sequence (Q96SW2 whole entry): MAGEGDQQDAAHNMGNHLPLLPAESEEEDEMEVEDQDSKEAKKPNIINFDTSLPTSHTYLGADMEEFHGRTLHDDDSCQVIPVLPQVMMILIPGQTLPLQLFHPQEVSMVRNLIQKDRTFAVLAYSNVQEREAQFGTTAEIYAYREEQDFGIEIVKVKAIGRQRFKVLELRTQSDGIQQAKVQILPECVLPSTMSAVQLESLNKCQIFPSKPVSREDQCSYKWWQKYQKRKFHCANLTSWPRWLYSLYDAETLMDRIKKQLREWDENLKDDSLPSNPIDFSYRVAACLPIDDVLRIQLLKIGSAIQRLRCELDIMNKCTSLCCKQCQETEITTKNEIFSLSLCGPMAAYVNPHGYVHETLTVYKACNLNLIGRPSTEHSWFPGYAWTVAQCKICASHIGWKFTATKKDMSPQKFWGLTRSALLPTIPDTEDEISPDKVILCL
Sequence (Q16531 whole entry partner): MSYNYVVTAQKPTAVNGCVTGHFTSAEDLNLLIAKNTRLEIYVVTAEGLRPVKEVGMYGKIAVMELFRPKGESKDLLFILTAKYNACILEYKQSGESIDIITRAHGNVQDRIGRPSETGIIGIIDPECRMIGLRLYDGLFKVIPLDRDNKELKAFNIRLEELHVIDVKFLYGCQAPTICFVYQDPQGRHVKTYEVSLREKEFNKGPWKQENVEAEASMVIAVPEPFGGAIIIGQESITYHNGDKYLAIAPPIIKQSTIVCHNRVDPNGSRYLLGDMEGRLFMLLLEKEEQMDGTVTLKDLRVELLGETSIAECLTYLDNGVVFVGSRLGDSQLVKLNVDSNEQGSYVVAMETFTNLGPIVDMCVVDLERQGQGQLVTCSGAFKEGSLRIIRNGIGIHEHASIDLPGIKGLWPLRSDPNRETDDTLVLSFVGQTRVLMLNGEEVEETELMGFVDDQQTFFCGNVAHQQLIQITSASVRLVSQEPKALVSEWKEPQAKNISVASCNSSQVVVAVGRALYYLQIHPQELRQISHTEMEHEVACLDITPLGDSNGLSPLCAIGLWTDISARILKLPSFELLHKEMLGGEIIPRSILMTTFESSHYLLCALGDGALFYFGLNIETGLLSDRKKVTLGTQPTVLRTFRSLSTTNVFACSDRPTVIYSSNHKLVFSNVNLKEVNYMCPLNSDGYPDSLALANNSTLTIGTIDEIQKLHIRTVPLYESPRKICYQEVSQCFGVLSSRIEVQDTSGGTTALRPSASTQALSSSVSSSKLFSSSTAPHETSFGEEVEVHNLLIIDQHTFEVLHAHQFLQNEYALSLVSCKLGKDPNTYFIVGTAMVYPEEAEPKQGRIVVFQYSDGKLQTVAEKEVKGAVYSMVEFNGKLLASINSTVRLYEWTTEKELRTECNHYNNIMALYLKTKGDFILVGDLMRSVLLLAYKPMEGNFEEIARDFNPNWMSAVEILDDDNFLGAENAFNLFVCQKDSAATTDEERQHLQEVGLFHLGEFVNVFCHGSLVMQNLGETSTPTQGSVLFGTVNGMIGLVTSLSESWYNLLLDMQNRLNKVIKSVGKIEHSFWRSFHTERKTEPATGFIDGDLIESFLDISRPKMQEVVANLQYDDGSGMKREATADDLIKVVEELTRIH
test_method_notes: Compound binding to CRBN by HTRF assay
pEC50: −log10 of the molar value.
measured_endpoint: pEC50

Take a look at these entries with their results.
compound	reported_result
CC(C)(C(=O)NCc1cc(Cl)c(C2CCC(=O)NC2=O)c(Cl)c1)c1ccc(C#N)cn1 (stereo not shown) [Compound 15]	6.92
CC(C)(C(=O)NCc1cc(Cl)c(C2CCC(=O)NC2=O)c(Cl)c1)c1nc2ccccc2o1 (stereo not shown) [Compound 167]	7.05

I: CC(C)(C(=O)NCc1cc(F)c(C2CCC(=O)NC2=O)c(Cl)c1)c1ccccc1 (stereo not shown) [Compound 31]
II: CC(C)(C(=O)NCc1cc(Cl)c(C2CCC(=O)NC2=O)c(Cl)c1)c1ccc2ocnc2c1 (stereo not shown) [Compound 17]
III: CC(C)(C(=O)NCc1cc(Cl)c(C2CCC(=O)NC2=O)c(Cl)c1)c1cnc(Cl)cn1 (stereo not shown) [Compound 248]
Q) Sort ascending by pEC50. // format: requested-order list of labels
A) I, III, II
(I: 6.89, III: 7.15, II: 7.70)

P: CC(C)(C(=O)NCc1cc(Cl)c(C2CCC(=O)NC2=O)c(Cl)c1)c1ncc(C2CC2)cn1 (stereo not shown) [Compound 1]
Q: CC1(c2cnc(C(C)(C)C(=O)NCc3cc(Cl)c(C4CCC(=O)NC4=O)c(Cl)c3)nc2)CC1 (stereo not shown) [Compound 207]
Q) Which entry shows the lesser value of pEC50 here, P or Q ? Reply briefly: the label of your chosen item.
A) P

FYI, the data here is from patent US20250243180A1.
